# MEASUREMENT TARGET: human LTBR on cells (human, UniProt P36941 31-435)
# ASSAY REMARKS: cell-based or functional assay
Reported NFκB luc, 58.59 ng/ml, with x linker values are given for each entry in this list.
MEASUREMENT LABEL: NFκB luc, 58.59 ng/ml, with x linker (RLU)

P1AE1873 (CBE11) (antibody, human IgG1, kappa, L234A L235A, V domains shown) VH: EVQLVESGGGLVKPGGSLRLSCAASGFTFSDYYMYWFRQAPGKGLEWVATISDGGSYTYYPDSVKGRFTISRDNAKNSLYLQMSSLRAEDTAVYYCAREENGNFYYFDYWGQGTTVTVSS VL: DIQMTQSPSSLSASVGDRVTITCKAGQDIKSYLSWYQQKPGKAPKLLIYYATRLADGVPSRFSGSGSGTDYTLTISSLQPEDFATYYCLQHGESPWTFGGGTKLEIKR | 63200
P1AE9459 (antibody, human IgG1, kappa, L234A L235A, V domains shown, human IgG1 PG LALA; from transgenic rabbit immunization) VH: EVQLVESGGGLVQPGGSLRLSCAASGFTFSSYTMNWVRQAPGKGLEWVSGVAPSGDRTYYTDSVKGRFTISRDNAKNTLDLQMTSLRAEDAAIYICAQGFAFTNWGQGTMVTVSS VL: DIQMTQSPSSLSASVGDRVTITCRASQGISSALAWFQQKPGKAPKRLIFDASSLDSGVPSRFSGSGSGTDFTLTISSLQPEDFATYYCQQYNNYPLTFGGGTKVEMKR | 33900
P1AE9457 (antibody, human IgG1, kappa, L234A L235A, V domains shown, human IgG1 PG LALA; from transgenic rabbit immunization; also called LTBR (9457)) VH: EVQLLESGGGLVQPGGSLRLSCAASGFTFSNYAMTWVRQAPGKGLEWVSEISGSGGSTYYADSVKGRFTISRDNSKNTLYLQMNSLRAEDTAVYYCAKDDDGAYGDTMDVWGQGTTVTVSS VL: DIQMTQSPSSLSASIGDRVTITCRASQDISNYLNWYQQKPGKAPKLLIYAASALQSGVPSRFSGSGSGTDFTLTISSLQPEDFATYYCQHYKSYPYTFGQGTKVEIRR | 20900
P1AF0079 (antibody, human IgG1, kappa, L234A L235A, V domains shown, human IgG1 PG LALA; from transgenic rabbit immunization; also called LTBR (0079)) VH: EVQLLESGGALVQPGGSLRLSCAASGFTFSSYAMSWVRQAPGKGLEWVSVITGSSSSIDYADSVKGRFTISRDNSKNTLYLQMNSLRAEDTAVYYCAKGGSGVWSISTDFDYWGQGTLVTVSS VL: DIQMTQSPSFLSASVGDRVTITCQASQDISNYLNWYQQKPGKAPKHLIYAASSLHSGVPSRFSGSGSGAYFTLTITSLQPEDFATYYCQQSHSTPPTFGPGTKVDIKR | 16400
P1AF0064 (antibody, human IgG1, kappa, L234A L235A, V domains shown, human IgG1 PG LALA constant regions; V domains from rat immunization; also called LTBR (0064)) VH: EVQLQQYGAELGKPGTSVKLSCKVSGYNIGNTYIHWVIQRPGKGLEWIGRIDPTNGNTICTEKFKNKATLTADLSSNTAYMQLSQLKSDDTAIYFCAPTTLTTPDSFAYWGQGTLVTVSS VL: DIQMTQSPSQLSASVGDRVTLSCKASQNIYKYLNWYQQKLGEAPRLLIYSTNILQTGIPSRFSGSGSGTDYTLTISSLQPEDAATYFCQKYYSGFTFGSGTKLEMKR | 46700

Data origin, for the record: patent US20250034269A1
